These entries and their values trace back to a protein production outcome set (Wang et al. 2014).

EXPERIMENTAL DETAILS: label from the status in PepcDB records
PROPERTY NAME: protein production

INSERT INTO measurements (sequence_entry, property_name, result) VALUES
  ('MKVFITGGTGFVGSAVVQELVANGFEVVGLARSETSAQKLISWGAQPVRGSLTSLSTLATAAAQADAIIHLGFNNDFRHFFQAGAMDRRAIETMGRAISGTNKPLVVTYGTTGIRKHVETEHEVADTGLLKWLTPRKSEIVARQLMAQNINAFVVRLSPAVHGAGDMGFTRTVIERAKKSHRAEYFGLGTHAWSAVHRLDAAHLFYLVTMYGLEHPTTNERVFNAVAEESITIAAIARTISRKLNVPLKAKYNPLSFGDTAMLYLINCPTSSQLTRQILGWVPVQPDLLTDISSSRYLEHHHHHH', 'protein production', 'failed'),
  ('MESAATAVVPPAAAATTATATDDNLQSSDSSSPADAVNRLIHAFSQRQQHLLDKTVPHVLYRWIACLCVVLIYIVRVYFVEGFYIITYAIGIYLLNLIIAFLSPQEDPEASLTSGGSLPTRRSDEYRPFVRRLPEFKFWLSIIRAFIIGFMMTFFEVFDVPVFWPILLFYWVMLFFLTMRKQIQHMIKYRYVPFSFGKKVCVSFSFLPSQN', 'protein production', 'failed'),
  ('MTSLPTSLLGDLDPTSDRAVFRQIADQLREAIDRGRFKEGEKLPSEAELVEHYGVSRMTVRNSFSILQGEGLVHAEHGKGVFVRPRPPVRRLASDRFARRHREQGKSAFIVEADAAGSHPQVDSLEVKEEKASQDISTRLGSVRRVLARRRRYLLDGRPVEFATSYLPLDIARDTPIAEPNPGPGGIYARLEELGHRLDHFEEEIRARMPSPSEVKTLRLASGVPVIHLIRTAYDTEGRAVEVCDTVMAADAYVLSYQLPAT', 'protein production', 'failed');

====

EXPERIMENTAL DETAILS: label from the status in PepcDB records
PROPERTY NAME: protein production

INSERT INTO assay_data (sequence_entry, property_name, result) VALUES
  ('PIKQSFLLKRSGNSLNKEWKKKYVTLSSNGFLLYHPSINDYIHSTHGKEMDLLRTTVKVPGKRPPRAISAFGPSASINGLVKDMSTVQMGEGLEATTPMPSPSPSPSSLQPPPDQTSKHLL', 'protein production', 'failed'),
  ('MAGLFTPKDAAMNIAIVTINQENAAIASWLAAQDFSGCTLAHWQIEPQPVVAEQVLDAMVEQWQRTPADVVLFPPGTFGDELSTRLAWRLHGASICQVTSLDIPTVSMRKSHWGNALTATLQTEKRPLCLSLARQAGAAKNATLPSGMQQLNIVPGALPDWLVSTEDLKNVSRDPLAEARRVLVVGQGGEADNQEIVMLAEKLGAEVGYSRARVMNGGVDAEKVIGISGHLLAPEVCIVVGASGAAALMAGVRNSKFMVAINHDASAAVFSQADIGVVDDWKVVLEALVTNIHAEYQ', 'protein production', 'failed'),
  ('MRYKRRFVTVYRDFPEGCGVPSKPISNADESFMQSKFNKDGIVLQAHEDFSKITKESSNHSETENSRTEDLLDEGSVLDSNGSVTDCQEDREREMSSVKKRCLSSHNLTSEVETERIGIVLGLAAKAKCPWRQPKIRGSRQVNDLN', 'protein production', 'failed');
